# Test system: SK-MEL-5
# TEST DESCRIPTION: NCI tumour cell line growth inhibition, 48 h
Calls of active or inactive are those of the source. No stated cut-off is given here; in the data, active = GI50 up to about 1.1 µM and inactive = higher.
Exercise: state measured GI50 for each of the compounds provided.

Input line: # get_value(readout= GI50, system= SK-MEL-5) for NC1CC(=O)c2c(I)sc(I)c21 (stereo not drawn)
Output line: 27.6 µM (inactive)

Input line: # get_value(readout= GI50, system= SK-MEL-5) for C=C(C(=C)P(=S)(C(C)C)C(C)C)P(=S)(C(C)C)C(C)C
Output line: > 100 µM (inactive)

Input line: # get_value(readout= GI50, system= SK-MEL-5) for Nc1ccn(C2OC(COP(=O)(O)O)C(O)C2O)c(=O)n1 (stereo not drawn)
Output line: 16.6 µM (inactive)
